Attribute: pEC50
- target.of.assay: ligand binding domain of human FXR (Homo sapiens (Human), UniProt Q96RI1)
- Sequence (Q96RI1 262-486): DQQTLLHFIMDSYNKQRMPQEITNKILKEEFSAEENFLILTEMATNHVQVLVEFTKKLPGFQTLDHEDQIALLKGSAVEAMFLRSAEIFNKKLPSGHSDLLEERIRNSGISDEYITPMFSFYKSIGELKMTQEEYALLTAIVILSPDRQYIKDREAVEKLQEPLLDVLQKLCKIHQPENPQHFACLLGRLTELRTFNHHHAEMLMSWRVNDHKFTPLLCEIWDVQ
- method.summary: FXR ligand binding assay (LanthaScreen TR-FRET, SRC2-2 peptide recruitment)
- test.conditions: -log EC50, concentration required to produce 50% activation
Answer field: number only, no words.

Examples with their reported pEC50 follow.
CS(=O)(=O)NC(=O)c1cc(F)c2nc(N3C[C@@H]4C[C@H]3C[C@H]4OC(=O)c3c(-c4c(Cl)cccc4Cl)noc3C3CC3)sc2c1 [Compound I-31]
7.4
O=C(O)c1ccc(N2C[C@@H]3C[C@H]2C[C@H]3OCc2c(-c3c(Cl)cccc3Cl)noc2C2(F)CC2)cc1F [Compound I-122]
9.6
O=C(NCCS(=O)(=O)O)c1ccc(N2C[C@@H]3C[C@H]2C[C@H]3OCc2c(-c3c(Cl)cccc3Cl)noc2C2CC2)cc1F [Compound I-168]
8.6

Q: Look up and report measured pEC50 for this entry: O=C(O)C1CCc2cc(N3C(=O)[C@@H]4C[C@H]3C[C@H]4OCc3c(-c4c(Cl)cccc4Cl)noc3C3CC3)ccc21 (stereo partly shown) [Compound I-312]
A: 7

Q: Quick one: give measured pEC50 for O=C(NS(=O)(=O)CCO)c1ccc(N2C[C@@H]3C[C@H]2C[C@H]3OCc2c(-c3c(Cl)cccc3Cl)noc2C2CC2)cc1 [Compound I-210]
A: 8.6

Q: Could you please provide reported pEC50 for O=C(O)c1ccc(N2C[C@@H]3C[C@H]2C[C@H]3OCc2c(-c3ccccc3C(F)(F)F)noc2C2CC2)cc1 [Compound I-120] ? Thanks!
A: 8

Q: Supply recorded pEC50 for O=C(O)CCc1ncc(N2C(=O)[C@@H]3C[C@H]2C[C@H]3OCc2c(-c3c(Cl)cccc3Cl)noc2C2CC2)cc1F [Compound I-328] here.
A: 6.9

Q: Using the record for Cc1cccc(Cl)c1-c1noc(C2CC2)c1CO[C@@H]1C[C@@H]2C[C@H]1CN2c1nc2c(O[C@@H]3CCOC3)cc(C(=O)O)cc2s1 [Compound I-275] , state its measured pEC50.
A: 8.8

Q: Please supply the value of reported pEC50 for the item O=C(O)CCc1ccc(N2C(=O)[C@@H]3C[C@H]2C[C@H]3OCc2c(-c3c(Cl)cccc3Cl)noc2C2CC2)cc1 [Compound I-303]
A: 7.4
